# TARGET_OR_TEST_SYSTEM: SARS-CoV-2 wild-type RBD (SARS-CoV-2, UniProt P0DTC2)
# PROTOCOL_DETAILS: BLI
MEASUREMENT_NAME: binding result

>  <BINDER>
BD56-104 (antibody, V domains shown) VH: QVQLVQSGAEVKTPGSSVKVSCKASGGTFGSHSITWVRQAPGQGLEWMGRVIPILGIPDFAESFQGRVAITADRSTSTAHMELSRLRSEDTAVYYCARDVGYSGSGSSNYFDSWGQGTLVTVSS VL: QSVLTQPPSVSGAPGQRVTISCTGSNSNIGAGYDVHWYRQLPGTAPKLLIYVNNNRPSGVPDRFSGSRSGASASLAITGLQAEDEAEYYCQSYDSSLSGSIFGGGTKLTVL

>  <MEASURED_RESULT>
binds

$$$$
>  <BINDER>
C092 (antibody, V domains shown) VH: QVQLVQSGAEVKKPGSSVKVSCKASGGSFTNHFISWVRQAPGQGLEWMGRIIPILGTANYAQNFQGRVMMTADKSTSTAYMELSSLRSEDTAVYYCARDSGYSGYGSTYYMDVWGKGTTVTVSS VL: QSVLTQPPSVSGAPGQRVTISCTGSNSNIGAGYDVHWYQQLPGAAPKLLIYGNNNRPSGVPDRFSGSKSDTSASLAITGLQVEDEADYYCQSYDSSLSDSVFGSGTKVTVL

>  <MEASURED_RESULT>
binds

$$$$
>  <BINDER>
BD56-597 (antibody, V domains shown) VH: QVQLVQSGAEVKKPGSSVKVSCKASGGTFSTYPISWVRQAPGQGVEWMGAIIPILGTTDYAQIFQGRVTITADKSTSTAYMELSSLRPEDTAVYYCARERGYSGYGAAYYFDSWGQGTLVTVSS VL: QSVLTQPPSVSGAPGQRVTISCTGSDSNIGAGYDVHWYQQLPGTAPKLLIYVNINRPSGVPDRFSGSKSATSASLAITGLQAEDEADYYCQSYDSSLSGVVFGGGTKLTVL

>  <MEASURED_RESULT>
binds

$$$$
